- Test Target: ΔF508-CFTR (Homo sapiens, UniProt P13569, DEL508-508)
- Construct: host or cells: CFBE41o-, doxycycline-inducible
- Sequence (P13569 with tags, fused parts or gaps DEL508-508): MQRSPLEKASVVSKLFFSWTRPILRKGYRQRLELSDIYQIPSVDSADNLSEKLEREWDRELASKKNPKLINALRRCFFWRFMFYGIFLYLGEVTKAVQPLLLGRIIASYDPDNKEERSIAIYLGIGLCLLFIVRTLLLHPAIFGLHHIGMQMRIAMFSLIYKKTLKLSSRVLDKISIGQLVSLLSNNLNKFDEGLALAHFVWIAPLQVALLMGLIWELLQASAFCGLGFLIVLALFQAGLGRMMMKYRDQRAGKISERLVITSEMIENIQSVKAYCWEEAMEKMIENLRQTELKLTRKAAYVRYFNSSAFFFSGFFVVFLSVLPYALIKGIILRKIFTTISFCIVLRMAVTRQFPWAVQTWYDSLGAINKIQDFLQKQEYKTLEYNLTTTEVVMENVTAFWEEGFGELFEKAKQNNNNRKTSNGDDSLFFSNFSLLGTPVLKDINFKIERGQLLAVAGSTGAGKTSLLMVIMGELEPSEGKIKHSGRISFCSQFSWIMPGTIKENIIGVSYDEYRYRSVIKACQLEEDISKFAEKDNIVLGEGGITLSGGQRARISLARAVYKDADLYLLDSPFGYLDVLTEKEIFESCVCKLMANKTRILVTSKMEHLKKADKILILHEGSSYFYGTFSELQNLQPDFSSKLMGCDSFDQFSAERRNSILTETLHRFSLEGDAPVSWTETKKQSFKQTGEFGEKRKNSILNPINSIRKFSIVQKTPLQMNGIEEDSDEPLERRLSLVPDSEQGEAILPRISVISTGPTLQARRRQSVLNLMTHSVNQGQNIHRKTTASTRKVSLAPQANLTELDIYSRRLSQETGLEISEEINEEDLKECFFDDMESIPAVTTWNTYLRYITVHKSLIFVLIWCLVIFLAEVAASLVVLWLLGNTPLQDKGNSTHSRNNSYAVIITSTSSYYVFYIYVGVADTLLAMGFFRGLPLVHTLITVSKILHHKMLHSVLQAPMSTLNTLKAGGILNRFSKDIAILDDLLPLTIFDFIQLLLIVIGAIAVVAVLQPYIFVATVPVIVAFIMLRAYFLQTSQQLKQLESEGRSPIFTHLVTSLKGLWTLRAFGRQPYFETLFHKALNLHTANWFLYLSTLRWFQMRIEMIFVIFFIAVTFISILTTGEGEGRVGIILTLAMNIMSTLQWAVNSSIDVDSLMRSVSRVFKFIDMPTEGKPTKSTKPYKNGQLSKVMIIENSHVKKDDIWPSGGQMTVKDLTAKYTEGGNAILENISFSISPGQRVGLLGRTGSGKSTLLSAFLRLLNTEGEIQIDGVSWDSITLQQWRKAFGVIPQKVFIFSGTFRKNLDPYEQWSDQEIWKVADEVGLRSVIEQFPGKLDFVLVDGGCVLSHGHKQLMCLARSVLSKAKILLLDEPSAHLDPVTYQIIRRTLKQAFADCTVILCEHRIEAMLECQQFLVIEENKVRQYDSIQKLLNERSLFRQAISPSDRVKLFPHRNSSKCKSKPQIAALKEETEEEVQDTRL
- Test Details: CFTR cell surface levels using HRP-tagged ΔF508-CFTR expressing CFBE cells, in the presence of a co-corrector
- Format: cell-based
- Condition Set: HRP-tagged ΔF508-CFTR expressing CFBE cells, in the presence of 3 μM co-corrector; read-out: EC50
Parameter pEC50: see the listing below.
Hey, just a heads up that pEC50 is the negative log base 10 of the concentration in molar.

Solved cases below.
* O=C(O)c1cc(N2CCC3C(CCN3C3CCOCC3)C2)c2c(C3CCC3)nn(-c3ccc(F)cc3)c2n1 (stereo not shown) [compound 903] | 6.96
* CC(C)c1nn(C2CCCCC2)c2nc(C(=O)O)cc(-c3cnc(N4CCOCC4)nc3)c12 [compound 80] | 5.53
* Cc1nn(-c2ccccc2)c2nc(C(=O)O)cc(OC[C@@H](F)C3CCN(C)CC3)c12 [compound 379] | 5.30
* CC(C)c1nn(-c2cccc(N(C)C)c2)c2nc(C(=O)O)cc(-c3ccc(N(C)C4CCOCC4)nc3)c12 [compound 189] | 6.53
* CC(C)c1nn(-c2ccc(F)cc2)c2nc(C(=O)O)cc(N3CCC(C4CCN(C)CC4)CC3)c12 [compound 661] | 6.64
* N#CCCN1CCN(c2cc(C(=O)O)nc3c2c(C2CCC2)nn3-c2ccccc2)CC1 [compound 561] | 6.37

Query string: Endpoint output: pEC50 of CC(C)c1nn(C2CCCCC2)c2nc(C(=O)O)cc(-c3cnc(N(C)C4CCOCC4)nc3)c12 [compound 236] . Value?
Result string: 6.20

* * *

- Test Target: ΔF508-CFTR (Homo sapiens, UniProt P13569, DEL508-508)
- Construct: host or cells: CFBE41o-, doxycycline-inducible
- Test Details: CFTR cell surface levels using HRP-tagged ΔF508-CFTR expressing CFBE cells, in the presence of a co-corrector
- Type: cell-based
- Condition Set: HRP-tagged ΔF508-CFTR expressing CFBE cells, in the presence of 3 μM co-corrector
I'd appreciate it if you marked entries met when % Activation is lower than 300% and not met when it is not.

Example entries and their recorded answers appear below.
* O=C(O)c1cc(N2CCC(CN3CC[C@@H](F)C3)CC2)c2c(C3CCC3)nn(-c3ccccc3)c2n1 [compound 832] | not met
* CCN(CC)C(=O)C1CCCN(c2cc(C(=O)O)nc3c2c(C2CCC2)nn3-c2ccccc2)C1 (stereo not shown) [compound 500] | met
* CC(C)c1nn(C2CCCCC2)c2nc(C(=O)O)cc(-c3ccn(C)c3)c12 [compound 351] | met
* O=C(O)c1cc(N2CCC(N3CCOCC3)CC2)c2c(C3CCC3)nn(-c3ccnc(O)c3)c2n1 [compound 885] | met
* O=C(O)c1cc(N2CCN3C[C@@H](F)C[C@H]3C2)c2c(C3CCC3)nn(-c3ccccc3)c2n1 [compound 515] | met
* CC(C)c1nn(C2CCCCC2)c2nc(C(=O)O)cc(OCC3CCOCC3)c12 [compound 603] | met
* O=C(O)c1cc(O[C@H]2CCOC2)c2c(C3CCC3)nn(-c3ccccc3)c2n1 [compound 583] | met
* CC1(COc2cc(C(=O)O)nc3c2c(C2CCC2)nn3-c2ccccc2)COC1 [compound 490] | not met
* Cc1nn(-c2ccccc2)c2nc(C(=O)O)cc(OCC(=O)N3CCCCC3)c12 [compound 383] | met
* Cc1nn(-c2ccccc2)c2nc(C(=O)O)cc(N3CCCCC3)c12 [compound 123] | met

Then this compound:
Query string: Field: below-cutoff. Rule: recorded % Activation strictly less than 300%. Subject: CC(C)CN1CCC(CN(C)c2cc(C(=O)O)nc3c2c(C2CCC2)nn3-c2ccccc2)CC1 [compound 564]
Result string: not met

* * *

- Test Target: ΔF508-CFTR (Homo sapiens, UniProt P13569, DEL508-508)
- Construct: host or cells: CFBE41o-, doxycycline-inducible
- Test Details: CFTR cell surface levels using HRP-tagged ΔF508-CFTR expressing CFBE cells, in the presence of a co-corrector
- Assay type: cell-based
EC50 strictly under 500 nM means true (1); at 500 nM or over means false (0).

// below: answered molecules
- O=C(O)c1cc(N2CCC[C@@H](CO)C2)c2c(C3CCC3)nn(-c3ccccc3)c2n1: true (1)
- Cc1c(C(=O)O)nc2c(c(C(C)C)nn2-c2ccc(F)cc2)c1N1CCC(N2CCOCC2)CC1: false (0)
- CC(C)(C)OC(=O)NC[C@H]1CCN(c2cc(C(=O)O)nc3c2c(C2CCC2)nn3-c2ccccc2)C1: false (0)

Query string: Below 500 nM on EC50? Entry `O=C(O)c1cc(N2CCC(CCN3CCOCC3)CC2)c2c(C3CCC3)nn(-c3ccccc3)c2n1`
Result string: true (1)

Query string: hey, is EC50 for `O=C(O)c1cc(N2CCC(N3CCOCC3)CC2)c2c(C3CCC3)nn(-c3ccccc3)c2n1` lower than 500 nM or not?
Result string: true (1)

* * *

- Test Target: ΔF508-CFTR (Homo sapiens, UniProt P13569, DEL508-508)
- Construct: host or cells: CFBE41o-, doxycycline-inducible
- Test Details: CFTR cell surface levels using HRP-tagged ΔF508-CFTR expressing CFBE cells, intrinsic corrector capacity
- Type: cell-based
- Condition Set: HRP-tagged ΔF508-CFTR CFBE41o- cells, compounds alone (intrinsic corrector capacity), 20 hours at 33° C.; read-out: EC50
Observed Property: EC50 (nM)
Your answer should be a plain number; it is taken to be in nM.

* Cc1nn(-c2ccccc2)c2nc(C(=O)O)cc(-c3ccc(N4CC(F)(F)C4)cc3)c12 [compound 97] | 1530
* COCC1CCCN(c2cc(C(=O)O)nc3c2c(C2CCC2)nn3-c2ccccc2)C1 (centres unmarked) [compound 373] | 469
* Cc1nn(-c2ccccc2)c2nc(C(=O)O)cc(OCC3(C)CC(F)(F)C3)c12 [compound 386] | 1310
* COCCN(C)c1cccc(-n2nc(C(C)C)c3c(-c4ccc(N5CCOCC5)cc4)cc(C(=O)O)nc32)c1 [compound 172] | 615

Query string: Bench note: what EC50 did CC(C)c1nn(C2CCCCC2)c2nc(C(=O)O)cc(-c3ccc(N4CCOC(C)(C)C4)nc3)c12 [compound 197] show?
Result string: 644

Query string: Value lookup for EC50; key = CC(C)c1nn(C2CCCCC2)c2nc(C(=O)O)cc(-c3ccc(N4CCC(C#N)CC4)nc3)c12 [compound 180]
Result string: 972

* * *

Quick reference: % Activation of the listed items.
- Test Target: ΔF508-CFTR (Homo sapiens, UniProt P13569, DEL508-508)
- Construct: host or cells: CFBE41o-, doxycycline-inducible
- Test Details: CFTR cell surface levels using HRP-tagged ΔF508-CFTR expressing CFBE cells, intrinsic corrector capacity
- Format: cell-based
- Condition Set: HRP-tagged ΔF508-CFTR CFBE41o- cells, compounds alone (intrinsic corrector capacity), 20 hours at 33° C.; positive control 3 μM corrector
Numeric answer only, unit % assumed.

Reference set (7 entries):
* CC(C)c1nn(-c2cccc(F)c2)c2nc(C(=O)O)cc(-c3ccc(N4CCC(C#N)CC4)cc3)c12 [compound 286] | 259.83
* COC1CCCN(c2cc(C(=O)O)nc3c2c(C(C)C)nn3-c2cccc(C)c2)C1 (centres unmarked) [compound 190] | 136.12
* Cc1nn(-c2cc(C(F)(F)F)[nH]n2)c2nc(C(=O)O)cc(-c3ccc(N4CCOCC4)cc3)c12 [compound 7] | 5.355
* COC1CCN(c2cc(C(=O)O)nc3c2c(C(C)C)nn3-c2ccc(F)cc2)CC1 [compound 393] | 258.8
* CC(C)c1nn(-c2cc(F)cc(F)c2)c2nc(C(=O)O)cc(-c3ccc(N4CCOCC4)cc3)c12 [compound 268] | 251.82
* Cc1nn(-c2ccccc2)c2nc(C(=O)O)cc(-c3ccc(N4CCC(F)C4)cc3)c12 (centres unmarked) [compound 28] | 129.5
* Cc1nn(-c2ccccc2)c2nc(C(=O)O)cc(N3CCC(O)CC3)c12 [compound 137] | 27.985

Query string: Suppose we examine the molecule CC(C)c1nn(-c2cccc(N3CCOCC3)c2)c2nc(C(=O)O)cc(-c3ccc(N4CCOCC4)cc3)c12 [compound 121] ; what % Activation value has been reported?
Result string: 401.5

* * *

- Test Target: ΔF508-CFTR (Homo sapiens, UniProt P13569, DEL508-508)
- Construct: host or cells: CFBE41o-, doxycycline-inducible
- Test Details: CFTR cell surface levels using HRP-tagged ΔF508-CFTR expressing CFBE cells, intrinsic corrector capacity
- Type: cell-based
- Condition Set: HRP-tagged ΔF508-CFTR expressing CFBE cells; intrinsic corrector capacity (no co-corrector); 33° C., 20 hours; read-out: EC50
# strict inequality: EC50 < 600 nM yields yes (1), everything else yields no (0)

* CC(C)c1nn(-c2ccnc(N3CCOCC3)c2)c2nc(C(=O)O)cc(-c3ccc(N4CCC(C#N)CC4)nc3)c12 [compound 437] | no (0)
* CC1(CO)CN(c2cc(C(=O)O)nc3c2c(C2CCC2)nn3-c2ccccc2)C1 [compound 511] | no (0)
* O=C(O)c1cc(N2CC3(CCOC3)C2)c2c(C3CCC3)nn(-c3ccccc3)c2n1 [compound 534] | no (0)
* COC1(C)CCN(c2cc(C(=O)O)nc3c2c(C(C)C)nn3-c2ccc(F)cc2)CC1 [compound 397] | no (0)
* CO[C@H]1CCCC[C@@H]1Oc1cc(C(=O)O)nc2c1c(C1CCC1)nn2-c1ccccc1 [compound 580] | yes (1)

Query string: Strictly below 600 nM: is that where EC50 of CCOC(=O)N1CCN(c2cc(C(=O)O)nc3c2c(C2CCC2)nn3-c2ccccc2)CC1 [compound 539] sits?
Result string: yes (1)

Query string: Please determine if O=C(O)c1cc(N2CC(N3CCCCC3)C2)c2c(C3CCC3)nn(-c3ccccc3)c2n1 [compound 466] is below 600 nM in terms of EC50.
Result string: no (0)

Query string: For this molecule, is EC50 lower than 600 nM? O=C(O)c1cc(N2CCC(N3CC4CC3CO4)CC2)c2c(C3CCC3)nn(-c3ccc(F)cc3)c2n1 (centres unmarked) [compound 852]
Result string: no (0)

Source of measurements: patent US9796711B2
